system: SF-268 CNS; assay: NCI-60 one-dose screen, 48 h (100 = growth as untreated, 0 = no growth, -100 = all killed); conditions: 10 µM unless noted
About 83,000 compounds went through this panel and 20% of them were active in at least one assay; those are over-represented in the sample as a whole.
A collection of compounds and their measured growth
Value expressed in %; do not type the unit.

compound="O=S(=O)(NC1c2ccccc2C[C@H]1O)c1ccc(Cl)cc1Cl (some centres undefined)" readout_units=% meas_value=96.7
compound=COc1cc(-c2nc(SCCC(C)C)nc(NNC(=O)c3ccncc3)c2C#N)cc(OC)c1OC readout_units=% meas_value=56
compound=NS(=O)(=O)c1ccc(-n2cc(-c3cccc(NC(=O)c4ccc(N5CCOCC5)c(C(F)(F)F)c4)c3)nn2)cc1 readout_units=% meas_value=68.9

Value of measured growth for the entry O=C1CCCc2nc(Nc3ccc(S(=O)(=O)Nc4ccc([N+](=O)[O-])cc4)cc3)ncc21 : 96.2

Value of growth reported for the compound CCN(CC)c1ccc2c(c1)Oc1nc(N)c(C#N)c(N)c1C2Sc1ccc(F)cc1 (centres undefined) is -44.7

# growth (compound: CN1CCN(c2ccc(/C=N/Nc3nc4ccccc4c(=O)n3-c3ccccc3)cc2)CC1 ) is 90.7

Just so you know, measured growth for O=C(CN1CCN(c2cc(=O)n(-c3ccccc3)c3ccccc23)CC1)Nc1ccc(F)cc1 came out at 69.2

In plain terms, O=C(NNc1nc2cc(F)ccc2n2c(CO)ccc12)c1cnccn1 has a documented growth of 20.3

For record C[C@@H](Nc1c(C#N)cnc2ccc(-c3cnc(Cl)c(NS(C)(=O)=O)c3)cc12)c1ccccc1 the listed growth is -1.52

###

system: DU-145 prostate; assay: NCI-60 one-dose screen, 48 h (100 = growth as untreated, 0 = no growth, -100 = all killed); settings: 10 µM unless noted
Compounds without any hit were thinned out: in the full panel of roughly 83,000, 20% have a hit.
Measured Property: growth (%)
Express it in %; write the number only.

compound=O=C(CSc1nc2ccccc2c(=O)n1-c1ccc(Cl)cc1)N/N=C/c1ccc(N2CCCCC2)cc1 readout_units=% meas_value=29.1
compound=CS(=O)(=O)Nc1cc(-c2ccc3ncc(C#N)c(NCc4ccccc4O)c3c2)cnc1Cl readout_units=% meas_value=19.2
compound=Nc1nc(Nc2ccccc2SSc2ccccc2Nc2nc(N)nc(-c3ccccc3)n2)nc(-c2ccccc2)n1 readout_units=% meas_value=69.4
compound="Cc1ccc2sc3c(c2c1)OC(N)=C(C#N)C3c1ccc(Cl)cc1 (stereo not drawn)" readout_units=% meas_value=76.8
compound=C=CC(=O)N1CC=C(c2cc3c(N[C@H](C)c4ccccc4)ncnc3[nH]2)CC1 readout_units=% meas_value=40.3

Looking up O=C1[C@H]2Cc3c([nH]c4ccccc34)[C@@H](c3c(Cl)cccc3Cl)N2C(=O)CN1C1CCN(CC2CCCCC2)CC1 , I found its growth recorded as 48.9

// recorded growth for Cn1ccnc1C(=O)/C=C/c1ccc(NC(=O)c2c(F)c(F)c(F)c(F)c2F)cc1 : 106

Kindly note the recorded growth for CC1(C)CC[C@]23CC[C@]4(C)[C@H](CC[C@@H]5[C@@]6(C)CCCN(CO)C(C)(C)[C@@H]6CC[C@]54C)[C@H]2[C@H]1OC3 , which is 50.7

All values here come from PubChem BioAssay (NCI).
